biological target: COX-1 from ram seminal vesicles (Ovis aries, UniProt P05979); construct: COX-1 from ram seminal vesicles; purchased Sigma-Aldrich (Czech Republic); host or cells: ram seminal vesicles (tissue-derived enzyme); test: COX-1 assay (PGE2 formation, ELISA); format: biochemical
Sequence (P05979 25-600): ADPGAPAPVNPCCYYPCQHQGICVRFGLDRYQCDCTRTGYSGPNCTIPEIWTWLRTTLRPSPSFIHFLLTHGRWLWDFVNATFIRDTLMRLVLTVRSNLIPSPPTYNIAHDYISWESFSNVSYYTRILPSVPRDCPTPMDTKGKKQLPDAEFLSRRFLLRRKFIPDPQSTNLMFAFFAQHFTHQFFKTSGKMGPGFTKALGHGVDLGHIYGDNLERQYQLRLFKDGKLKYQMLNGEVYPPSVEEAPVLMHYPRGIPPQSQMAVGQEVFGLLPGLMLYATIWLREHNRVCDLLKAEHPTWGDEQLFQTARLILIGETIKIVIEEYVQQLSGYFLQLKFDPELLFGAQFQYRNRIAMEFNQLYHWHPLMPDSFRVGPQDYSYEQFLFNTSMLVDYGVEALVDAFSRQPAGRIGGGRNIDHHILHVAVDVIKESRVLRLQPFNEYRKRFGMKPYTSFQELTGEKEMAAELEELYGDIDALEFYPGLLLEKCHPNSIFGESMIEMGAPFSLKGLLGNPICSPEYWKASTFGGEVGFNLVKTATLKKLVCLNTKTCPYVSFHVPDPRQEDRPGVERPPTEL
pIC50: −log10 of the molar value.
METRIC NAME: pIC50

MOLECULE	METRIC NAME	OBSERVED VALUE
Oc1cc(O)cc(/C=C/c2ccc(O)c(O)c2)c1 [Piceatannol, piceatannol]	pIC50	< 4.30

###

Target: 5-LOX (Homo sapiens)
Construct: endogenous in cells; host or cells: leukocytes isolated from buffy coat of healthy donors
Sequence (P09917 1-674): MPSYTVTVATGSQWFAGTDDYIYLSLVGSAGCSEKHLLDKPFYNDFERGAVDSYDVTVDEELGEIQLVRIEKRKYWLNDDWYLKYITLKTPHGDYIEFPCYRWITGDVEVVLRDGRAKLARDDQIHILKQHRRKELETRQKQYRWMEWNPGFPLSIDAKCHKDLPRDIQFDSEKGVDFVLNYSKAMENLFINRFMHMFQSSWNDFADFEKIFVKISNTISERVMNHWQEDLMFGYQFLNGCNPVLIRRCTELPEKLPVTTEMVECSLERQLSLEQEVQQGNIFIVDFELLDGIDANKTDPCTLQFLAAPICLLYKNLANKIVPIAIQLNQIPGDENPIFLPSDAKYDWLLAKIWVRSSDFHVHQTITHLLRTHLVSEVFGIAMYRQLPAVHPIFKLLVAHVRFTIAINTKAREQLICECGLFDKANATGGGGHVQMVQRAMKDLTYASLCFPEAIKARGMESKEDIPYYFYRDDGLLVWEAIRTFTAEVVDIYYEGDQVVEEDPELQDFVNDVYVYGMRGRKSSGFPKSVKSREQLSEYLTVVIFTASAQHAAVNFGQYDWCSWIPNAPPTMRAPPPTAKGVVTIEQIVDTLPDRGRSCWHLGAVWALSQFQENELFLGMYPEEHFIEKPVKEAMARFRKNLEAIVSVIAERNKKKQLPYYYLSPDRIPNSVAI
Assay: 5-LOX assay (LTB4 formation in cells from buffy coat, ELISA)
Type: cell-based
METRIC NAME: IC50 (µM)

SMILES	METRIC NAME	OBSERVED VALUE
O=c1c(O)c(-c2cc(O)c(O)c(O)c2)oc2cc(O)cc(O)c12	IC50	4.02
